What Kd was measured for each of the following?
- system: eIF4E (UniProt P06730 P06730:1-217)
- Sequence (P06730 whole entry, one chain of several): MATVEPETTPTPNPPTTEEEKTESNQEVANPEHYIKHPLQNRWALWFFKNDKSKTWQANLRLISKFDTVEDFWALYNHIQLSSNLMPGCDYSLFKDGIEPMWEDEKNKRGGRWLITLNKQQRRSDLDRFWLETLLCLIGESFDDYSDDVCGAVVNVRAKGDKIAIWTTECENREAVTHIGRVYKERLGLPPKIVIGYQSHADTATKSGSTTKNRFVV
- testName: EMSA; 50 mM KCl, 10 mM Tris-HCl pH 7.6, 1 mM DTT, 4 C
- measurementParameters: tags: His tag; Cayman Chemical 25150; label: 3' AF647-cytidine (EMSA)
Give the value, in units of µM, as a plain number.

Given item AGAGAAUAAAAA (ssRNA, 5' m7G cap; 2'-OMe at positions 1-6) [m7G-6x2OMe (15)] , the value recorded as its Kd is 2.45

Given item AGAGAAUAAAAA (ssRNA, 5' m7G cap with LNA sugar; 2'-OMe at positions 1-6) [LNAm7G-2OMex6 (24)] , the value recorded as its Kd is 1.57

Given item AGAGAAUAAAAA (ssRNA, 5' m7G cap with LNA sugar; LNA at position 1) [LNAm7G-LNA (22)] , the value recorded as its Kd is 1.43

Cited source: patent US20260263638A1
